Molecular target: human 5-hydroxytryptamine2C (h5HT2C) receptor (Homo sapiens)
Construct: expressed in transfected cells; host or cells: CHO (Chinese Hamster Ovary) cells; membrane preparation
Sequence (P28335 33-458): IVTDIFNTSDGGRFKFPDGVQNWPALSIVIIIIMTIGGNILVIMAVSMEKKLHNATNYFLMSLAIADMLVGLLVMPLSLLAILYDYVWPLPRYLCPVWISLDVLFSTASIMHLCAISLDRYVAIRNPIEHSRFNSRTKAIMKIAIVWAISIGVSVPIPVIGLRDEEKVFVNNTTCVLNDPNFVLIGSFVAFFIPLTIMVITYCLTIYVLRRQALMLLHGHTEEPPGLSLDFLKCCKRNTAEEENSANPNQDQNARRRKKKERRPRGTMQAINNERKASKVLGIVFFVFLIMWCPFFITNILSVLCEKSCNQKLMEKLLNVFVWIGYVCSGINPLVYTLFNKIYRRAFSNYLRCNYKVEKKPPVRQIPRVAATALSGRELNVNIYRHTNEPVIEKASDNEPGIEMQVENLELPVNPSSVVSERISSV
Test: 5HT2C Receptor Binding Test Procedure ([125I]DOI displacement, CHO cell membranes)
Settings: read-out: dissociation constant, KD of [125I] DOI at the human serotonin 5HT2C receptor; saturation binding with increasing concentrations of [125I] DOI
pKd: −log10 of the molar value.
Measured Parameter: pKd

                                   compound                         system_under_test  measured_parameter  observed_result
0  COc1cc(CC(C)N)c(OC)cc1I (stereo not shown) [[^125I] DOI]  human 5-hydroxytryptamine2C (h5HT2C) receptor (Homo sapiens)                 pKd             9.40

---

Biological target: human 5-hydroxytryptamine2C (h5HT2C) receptor (Homo sapiens)
Construct: expressed in transfected cells; host or cells: CHO (Chinese Hamster Ovary) cells; membrane preparation
Sequence (P28335 33-458): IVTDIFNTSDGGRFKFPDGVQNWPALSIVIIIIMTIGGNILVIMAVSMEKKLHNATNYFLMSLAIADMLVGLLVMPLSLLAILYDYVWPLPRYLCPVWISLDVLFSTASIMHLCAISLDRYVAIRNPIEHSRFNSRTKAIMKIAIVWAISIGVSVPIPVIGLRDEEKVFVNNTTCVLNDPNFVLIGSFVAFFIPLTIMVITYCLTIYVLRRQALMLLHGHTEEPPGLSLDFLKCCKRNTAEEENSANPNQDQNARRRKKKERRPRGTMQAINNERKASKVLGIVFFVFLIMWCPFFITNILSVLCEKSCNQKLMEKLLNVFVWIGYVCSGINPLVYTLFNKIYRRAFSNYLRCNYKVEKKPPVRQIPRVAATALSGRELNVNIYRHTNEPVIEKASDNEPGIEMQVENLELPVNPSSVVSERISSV
Assay: 5HT2C Receptor Binding Test Procedure ([125I]DOI displacement, CHO cell membranes)
For each record, check the reported Ki: if it is below 70 nM write 1, else write -1.

                                   compound  class_assignment
0           CC1(C)CCc2c(c3cccc4c3n2CCNC4)C1                -1
1  c1cc2c3c(c1)C1CCCCC1N3CCNC2 (centres unmarked)                -1
2     CC1(C)Cc2c(c3cccc4c3n2CCNC4)C(C)(C)C1                -1
3           Clc1cc2c3c(c1)c1c(n3CCNC2)CCCC1                -1
4  CC[C@@H](CO)NC(=O)[C@@H]1C=C2c3cccc4c3c(cn4C)C[C@H]2N(C)C1 [Methysergide]                 1
